Entry source: ChEMBL document CHEMBL4825728

subjectOfTest: Rhomboid protease GlpG (Escherichia coli (strain K12), UniProt P09391)
Sequence (P09391 whole entry): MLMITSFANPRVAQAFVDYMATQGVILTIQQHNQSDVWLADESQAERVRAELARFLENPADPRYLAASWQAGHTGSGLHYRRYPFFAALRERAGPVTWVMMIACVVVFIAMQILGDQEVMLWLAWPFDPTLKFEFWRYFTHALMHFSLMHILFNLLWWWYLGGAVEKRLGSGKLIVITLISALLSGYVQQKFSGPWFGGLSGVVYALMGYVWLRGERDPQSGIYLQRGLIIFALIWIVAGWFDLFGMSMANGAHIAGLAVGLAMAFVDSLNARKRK
assayComment: Inhibition of GlpG in Escherichia coli BL21 assessed as inhibition of FP-Rh labeling treated with compound for 30 mins prior to FP-Rh addition by competitive ABPP based analysis
observedProperty: pIC50
Recall that pIC50 is obtained by taking minus log10 of the concentration measured in molar.

## Input Quick one: pIC50 of O=C1CCC(=O)N1OS(=O)(=O)c1ccc(-c2ccccc2)cc1 ?
## Output 4.59

## Input Also check O=C(OCN1C(=O)c2ccccc2S1(=O)=O)c1ccccc1Cl
## Output 5.55

## Input Also check O=C1CCC(=O)N1S(=O)(=O)c1ccc(-c2ccccc2)cc1
## Output 4.17

## Input Also check O=C1CCC(=O)N1S(=O)(=O)c1ccc([N+](=O)[O-])cc1
## Output 3.51

## Input Also check O=C1CCC(=O)N1OS(=O)(=O)c1ccccc1
## Output 3.92
